experiment-notes: Antiproliferative activity against human MK1 cells by MTT assay
Format: cell-based
study-conditions: read-out: ED50 (the source's name)
measurement-kind: GI50 (µg/mL)

1) C=C[C@@H](O)C#CC#C[C@@H](O)/C=C\CCCCCCC : 3.2

Cited source: ChEMBL document CHEMBL1141830
